Quick reference: MIC of the listed items.
test system: Pseudomonas species C73-2; assay: Minimum prohibiting concentration by agar plate dilution method; assay type: cell-based; settings: C732, Table 1
assay_metric: MIC (mg/L)

| molecule | result_units | comparison_symbol | readout_number |
| --- | --- | --- | --- |
| Cc1ccc(-c2ccc(C(=O)N[C@@H](C(=O)NC3C(=O)N4C(C(=O)O)=C(CSc5nnc(C(N)=O)s5)CS[C@H]34)c3ccccc3)c(O)n2)cc1 (stereo partly shown) [Example 2] | mg/L | = | 100 |
| Cc1nnc(SCC2=C(C(=O)O)N3C(=O)[C@@H](NC(=O)Cn4cnnn4)[C@H]3SC2)s1 [Cefazolin Na, reference compound] | mg/L | > | 100 |
| Cc1ccc(-c2ccc(C(=O)N[C@@H](C(=O)NC3C(=O)N4C(C(=O)[O-])=C(CSc5nnc(C(N)=O)s5)CS[C@H]34)c3ccc(O)cc3)c(O)n2)cc1.[Na+] (stereo partly shown) [Example 8] | mg/L | = | 50 |
| CC1(C)S[C@@H]2[C@H](NC(=O)C(C(=O)O)c3ccccc3)C(=O)N2[C@H]1C(=O)O (stereo partly shown) [Carbenicillin disodium, reference compound] | mg/L | > | 100 |

Numbers sourced from patent US4258184A.
